pKi: −log10 of the molar value.
# pKi per entry for Apoptosis regulator Bcl-2 (Homo sapiens)
endpoint: pKi

[[record]]
line_notation = "CN1CCN(CCCNC(=O)c2c(-c3ccccc3)c(-c3ccc(Cl)cc3)cn2CC[C@H](O)CO)CC1"
endpoint = "pKi"
op = "="
result = 4.11

[[record]]
line_notation = "CN(C)CC[C@H](CSc1ccccc1)Nc1ccc(S(=O)(=O)Nc2ccc(C#Cc3cccc(-c4c(-c5ccc(Cl)cc5)cn(CC[C@H](O)CO)c4C(=O)NCCCN4CCN(C)CC4)c3)cc2)cc1[N+](=O)[O-]"
endpoint = "pKi"
op = "="
result = 8.82

[[record]]
line_notation = "CN(C)CC[C@H](CSc1ccccc1)Nc1ccc(S(=O)(=O)Nc2ccc(N3CCN(Cc4ccccc4-c4ccc(Cl)cc4)CC3)cc2)cc1[N+](=O)[O-]"
endpoint = "pKi"
op = "="
result = 7.66

[[record]]
line_notation = "CN(C)CC[C@H](CSc1ccccc1)Nc1ccc(S(=O)(=O)Nc2ccc(N3CCN(c4cccc(-c5c(-c6ccc(Cl)cc6)cn(CC[C@H](O)CO)c5C(=O)NCCCN5CCN(C)CC5)c4)CC3)cc2)cc1[N+](=O)[O-]"
endpoint = "pKi"
op = ">"
result = 9.22

[[record]]
line_notation = "CN(C)CC[C@H](CSc1ccccc1)Nc1ccc(S(=O)(=O)Nc2ccc(N3CCN(c4cccc(-c5c(-c6ccc(Cl)cc6)cn(C)c5C(=O)NCCCN5CCN(C)CC5)c4)CC3)cc2)cc1[N+](=O)[O-]"
endpoint = "pKi"
op = ">"
result = 9.22


* * *

biological target: Bcl-2-like protein 1 (Homo sapiens)
Sequence (Q07817 whole entry): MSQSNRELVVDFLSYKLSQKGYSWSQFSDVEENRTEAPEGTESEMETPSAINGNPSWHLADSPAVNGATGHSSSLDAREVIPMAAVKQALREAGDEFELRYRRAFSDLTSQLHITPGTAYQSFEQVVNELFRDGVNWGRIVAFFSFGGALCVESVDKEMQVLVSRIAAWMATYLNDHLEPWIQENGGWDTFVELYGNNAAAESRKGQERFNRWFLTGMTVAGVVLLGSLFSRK
Each entry below lists one item and its recorded IC50 value.
endpoint: IC50 (nM)

[[record]]
line_notation = "CN1CCN(CCCNC(=O)c2c(-c3ccccc3)c(-c3ccc(Cl)cc3)cn2CC[C@H](O)CO)CC1"
endpoint = "IC50"
units = "nM"
result = 453000

[[record]]
line_notation = "CCOC(=O)c1c(-c2cccc(N3CCN(c4ccc(NS(=O)(=O)c5ccc(N[C@H](CCN(C)C)CSc6ccccc6)c([N+](=O)[O-])c5)cc4)CC3)c2)c(-c2ccc(Cl)cc2)cn1C"
endpoint = "IC50"
units = "nM"
result = 12.6

[[record]]
line_notation = "CN(C)CC[C@H](CSc1ccccc1)Nc1ccc(S(=O)(=O)Nc2ccc(N3CCN(c4ccc(-c5c(-c6ccc(Cl)cc6)cn(CC[C@H](O)CO)c5C(=O)NCCCN5CCN(C)CC5)cc4)CC3)cc2)cc1[N+](=O)[O-]"
endpoint = "IC50"
units = "nM"
result = 7.6

[[record]]
line_notation = "CN(C)CC[C@H](CSc1ccccc1)Nc1ccc(S(=O)(=O)Nc2ccc(-c3cn(-c4cccc(-c5c(-c6ccc(Cl)cc6)cn(CC[C@H](O)CO)c5C(=O)NCCCN5CCN(C)CC5)c4)nn3)cc2)cc1[N+](=O)[O-]"
endpoint = "IC50"
units = "nM"
result = 4.8

[[record]]
line_notation = "CN(C)CC[C@H](CSc1ccccc1)Nc1ccc(S(=O)(=O)NC(=O)c2ccc(N3CCN(c4cccc(-c5c(-c6ccc(Cl)cc6)cn(CC[C@H](O)CO)c5C(=O)NCCCN5CCN(C)CC5)c4)CC3)cc2)cc1[N+](=O)[O-]"
endpoint = "IC50"
units = "nM"
result = 6.1

[[record]]
line_notation = "CNC(=O)c1c(-c2cccc(N3CCN(c4ccc(NS(=O)(=O)c5ccc(N[C@H](CCN(C)C)CSc6ccccc6)c([N+](=O)[O-])c5)cc4)CC3)c2)c(-c2ccc(Cl)cc2)cn1C"
endpoint = "IC50"
units = "nM"
result = 6.3

[[record]]
line_notation = "CN(C)CC[C@H](CSc1ccccc1)Nc1ccc(S(=O)(=O)Nc2ccc(N3CCN(c4cccc(-c5c(-c6ccc(Cl)cc6)cn(CC[C@H](O)CO)c5C(=O)NCCCN5CCN(C)CC5)c4)CC3)cc2)cc1[N+](=O)[O-]"
endpoint = "IC50"
units = "nM"
result = 6.2

[[record]]
line_notation = "CN(C)CC[C@H](CSc1ccccc1)Nc1ccc(S(=O)(=O)Nc2ccc(N3CCN(c4cccc(-c5cn(C)cc5-c5ccc(Cl)cc5)c4)CC3)cc2)cc1[N+](=O)[O-]"
endpoint = "IC50"
units = "nM"
result = 34.4


* * *

target: Induced myeloid leukemia cell differentiation protein Mcl-1 (Homo sapiens); test: Binding affinity to N-terminus 8X His-tagged human Mcl1 expressed in Escherichia coli BL21 (DE3) cells after 2 hrs by fluorescence polarization assay
Sequence (Q07820 whole entry): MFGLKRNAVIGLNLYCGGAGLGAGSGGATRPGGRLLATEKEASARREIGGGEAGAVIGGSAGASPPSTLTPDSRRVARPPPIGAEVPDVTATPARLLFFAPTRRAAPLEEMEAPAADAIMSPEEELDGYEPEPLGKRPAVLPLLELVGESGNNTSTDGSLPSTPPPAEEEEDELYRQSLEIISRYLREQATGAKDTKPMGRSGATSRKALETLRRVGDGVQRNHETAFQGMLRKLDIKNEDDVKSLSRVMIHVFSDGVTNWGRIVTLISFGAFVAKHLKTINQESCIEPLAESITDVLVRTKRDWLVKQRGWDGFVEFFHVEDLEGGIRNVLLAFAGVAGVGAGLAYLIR
endpoint: IC50

[[record]]
line_notation = "CN(C)CC[C@H](CSc1ccccc1)Nc1ccc(S(=O)(=O)Nc2ccc(N3CCN(c4ccc(-c5c(-c6ccc(Cl)cc6)cn(CC[C@H](O)CO)c5C(=O)NCCCN5CCN(C)CC5)cc4)CC3)cc2)cc1[N+](=O)[O-]"
test_system = "Induced myeloid leukemia cell differentiation protein Mcl-1 (Homo sapiens)"
result = "> 10 µM"

[[record]]
line_notation = "CN(C)CC[C@H](CSc1ccccc1)Nc1ccc(S(=O)(=O)Nc2ccc(N3CCNCC3)cc2)cc1[N+](=O)[O-]"
test_system = "Induced myeloid leukemia cell differentiation protein Mcl-1 (Homo sapiens)"
result = "> 100 µM"

[[record]]
line_notation = "CN(C)CC[C@H](CSc1ccccc1)Nc1ccc(S(N)(=O)=O)cc1[N+](=O)[O-]"
test_system = "Induced myeloid leukemia cell differentiation protein Mcl-1 (Homo sapiens)"
result = "> 100 µM"

[[record]]
line_notation = "CN(C)CC[C@H](CSc1ccccc1)Nc1ccc(S(=O)(=O)Nc2ccc(C#Cc3cccc(-c4c(-c5ccc(Cl)cc5)cn(CC[C@H](O)CO)c4C(=O)NCCCN4CCN(C)CC4)c3)cc2)cc1[N+](=O)[O-]"
test_system = "Induced myeloid leukemia cell differentiation protein Mcl-1 (Homo sapiens)"
result = "> 10 µM"

[[record]]
line_notation = "CNC(=O)c1c(-c2cccc(N3CCN(c4ccc(NS(=O)(=O)c5ccc(N[C@H](CCN(C)C)CSc6ccccc6)c([N+](=O)[O-])c5)cc4)CC3)c2)c(-c2ccc(Cl)cc2)cn1C"
test_system = "Induced myeloid leukemia cell differentiation protein Mcl-1 (Homo sapiens)"
result = "> 2 µM"

